- assaySystem: WRN [UniPro: Q14191 (WRN_HUMAN), N500-C946] (Homo sapiens (Human))
- methodSummary: WRN unwinding assay (FORKF DNA, fluorescence)
- Format: biochemical
- measurementContext: Table 14
Please go through the items and note down their IC50.

q: Request the reported IC50 associated with CCc1c(N2CCN(C(=O)CNC(=O)c3cccc(N)c3)CC2)c(=O)n2nc(C3=CCOCC3)nc2n1CC(=O)Nc1ccc(C(F)(F)F)cc1Cl [Example 288]
a: < 100 nM

q: Fill blank: measured IC50 of the molecule CCc1c(N2CCN(C(=O)CNC(=O)c3ccccc3)CC2)c(=O)n2nc(C3=CCOCC3)nc2n1CC(=O)N(C)c1ccc(C(F)(F)F)cc1Cl [Example 143] is ____.
a: > 1000 nM

q: Could you share which IC50 value was measured for CCc1c(N2CCN(C(=O)C(=O)Nc3ncco3)CC2)c(=O)n2nc(C3=CCOCC3)nc2n1CC(=O)Nc1ccc(C(F)(F)F)cc1Cl [Example 226] ?
a: < 100 nM

q: Using the record for CCc1c(N2CCN(C(=O)c3cnn4cccc4c3O)CC2)c(=O)n2nc(C3=CCOCC3)nc2n1CC(=O)Nc1sc(C)cc1Br [Example 146] , report its IC50.
a: 100 to 1000 nM

q: Field request: IC50 | item: CCc1c(N2CCN(C(=O)CNC(=O)NCC3CC3)CC2)c(=O)n2nc(C3=CCOCC3)nc2n1CC(=O)Nc1ccc(C(F)(F)F)cc1Cl [Example 190]
a: < 100 nM

q: Name the recorded IC50 for [2H]C([2H])(NC(=O)c1cc(NC)ccc1F)C(=O)N1CCN(c2c(CC)n(CC(=O)Nc3ccc(C(F)(F)F)cc3F)c3nc(C4=CCOCC4)nn3c2=O)CC1 [Example 209] .
a: < 100 nM

q: Can you look up the measured IC50 of CCc1c(N2CCN(C(=O)CNC(=O)c3ccno3)CC2)c(=O)n2nc(N3CCOCC3)nc2n1CC(=O)Nc1ccc(C(F)(F)F)cc1Cl [Example 376] for me?
a: < 100 nM

q: What does the record list as IC50 for CCc1c(N2CCN(C(=O)CNC(=O)c3ccccc3)CC2)c(=O)n2nc(N3CC4(COC4)C3)nc2n1CC(=O)Nc1ccc(C(F)(F)F)cc1Cl [Example 235] ?
a: 100 to 1000 nM

q: Fill in the blank: the reported IC50 of CCc1c(N2CCN(C(=O)c3ncc4nc(Cl)sc4c3O)CC2)c(=O)n2nc(C3=CCOCC3)nc2n1CC(=O)Nc1ccc(C(F)(F)F)cc1F [Example 199] is ____.
a: < 100 nM

q: // query IC50 value for entry CCc1c(N2CCN(C(=O)CNC(=O)c3cc(C)on3)CC2)c(=O)n2nc(C3=CCOCC3)nc2n1CC(=O)Nc1ccc(C(F)(F)F)cc1Cl [Example 107]
a: < 100 nM

q: Any idea what IC50 was measured for CCc1c(N2CCN(C(=O)c3ncc4ncsc4c3O)CC2)c(=O)n2nc(C3=CCOCC3)nc2n1CC(=O)Nc1ccc(C(F)(F)F)cc1Cl [Example 195] ?
a: < 100 nM

q: Name the recorded IC50 for CCc1c(N2CCN(C(=O)CNC(=O)c3ccccc3F)CC2)c(=O)n2nc(C3=CCOCC3)nc2n1CC(=O)Nc1cnc(C(F)(F)F)s1 [Example 157] .
a: < 100 nM

q: Reported IC50, molecule CCc1c(N2CCN(C(=O)CNC(=O)c3c(Cl)cccc3Cl)CC2)c(=O)n2nc(C3=CCOCC3)nc2n1CC(=O)Nc1ccc(C(F)(F)F)cc1Cl [Example 125] : ____
a: < 100 nM

q: Entry under review: CCc1c(N2CCN(C(=O)CNC(=O)c3ccon3)CC2)c(=O)n2nc(C3=CCOCC3)nc2n1CC(=O)Nc1ccc(C(F)(F)F)cc1Cl [Example 371] . Reported IC50?
a: < 100 nM

q: Param item = CCc1c(N2CCN(S(=O)(=O)CC)CC2)c(=O)n2nc(C3=CCOCC3)nc2n1CC(=O)Nc1ccc(C(F)(F)F)cc1Cl [Example 11] ; retrieve measured IC50.
a: > 1000 nM

q: # IC50 lookup, item CCc1c(N2CCN(C(=O)CNC(=O)c3ccccc3F)CC2)c(=O)n2nc(C3=CCOCC3)nc2n1CC(=O)Nc1ccc(C(F)(F)F)cc1C [Example 147]
a: < 100 nM

q: Form field: reported IC50 of CCc1c(N2CCN(C(=O)CNC(=O)c3cccc(Cl)c3Cl)CC2)c(=O)n2nc(C3=CCOCC3)nc2n1CC(=O)Nc1ccc(C(F)(F)F)cc1Cl [Example 104]
a: < 100 nM

q: Which IC50 value is on record for CCc1c(N2CCN(C(=O)C(=O)Nc3nccs3)CC2)c(=O)n2nc(C3=CCOCC3)nc2n1CC(=O)Nc1ccc(C(F)(F)F)cc1Cl [Example 332] ?
a: < 100 nM

q: Name the reported IC50 value associated with the molecule CCc1c(N2CCN(C(=O)CNC(=O)c3cccc(NC)c3)CC2)c(=O)n2nc(C3=CCOCC3)nc2n1CC(=O)Nc1ccc(C(F)(F)F)cc1Cl [Example 277]
a: < 100 nM

q: Consider the molecule CCc1c(N2CCN(C(=O)c3cc4sccc4[nH]c3=O)CC2)c(=O)n2nc(C3=CCOCC3)nc2n1CC(=O)Nc1ccc(C(F)(F)F)cc1Cl [Example 197] and give its measured IC50.
a: < 100 nM

q: Requested read-out: IC50. Entry: CCc1c(N2CCN(C(=O)c3ncn4cccc4c3O)CC2)c(=O)n2nc(C3=CCOCC3)nc2n1CC(=O)Nc1ccc(C(F)(F)F)cc1Cl [Example 202]
a: 100 to 1000 nM

q: State the recorded IC50 for this entry: CCc1c(N2CCN(C(=O)c3ncc4ccccc4c3O)CC2)c(=O)n2nc(C3=CCOCC3)nc2n1CC(=O)Nc1ccc(C(F)(F)F)cc1Cl [Example 204]
a: < 100 nM

q: What value of measured IC50 is listed for CCc1c(N2CCN(C(=O)CNC(=O)OC(C)C)CC2)c(=O)n2nc(C3=CCOCC3)nc2n1CC(=O)Nc1ccc(C(F)(F)F)cc1Cl [Example 172] ?
a: 100 to 1000 nM

q: # get_value(readout='IC50', item= CCc1c(N2CCN(C(=O)CNC(=O)c3c(F)cccc3Cl)CC2)c(=O)n2nc(C3=CCOCC3)nc2n1CC(=O)Nc1ccc(C(F)(F)F)cc1Cl [Example 319] )
a: < 100 nM

---

- assaySystem: WRN [UniPro: Q14191 (WRN_HUMAN), N500-C946] (Homo sapiens (Human), UniProt Q14191)
- Sequence (Q14191 500-946): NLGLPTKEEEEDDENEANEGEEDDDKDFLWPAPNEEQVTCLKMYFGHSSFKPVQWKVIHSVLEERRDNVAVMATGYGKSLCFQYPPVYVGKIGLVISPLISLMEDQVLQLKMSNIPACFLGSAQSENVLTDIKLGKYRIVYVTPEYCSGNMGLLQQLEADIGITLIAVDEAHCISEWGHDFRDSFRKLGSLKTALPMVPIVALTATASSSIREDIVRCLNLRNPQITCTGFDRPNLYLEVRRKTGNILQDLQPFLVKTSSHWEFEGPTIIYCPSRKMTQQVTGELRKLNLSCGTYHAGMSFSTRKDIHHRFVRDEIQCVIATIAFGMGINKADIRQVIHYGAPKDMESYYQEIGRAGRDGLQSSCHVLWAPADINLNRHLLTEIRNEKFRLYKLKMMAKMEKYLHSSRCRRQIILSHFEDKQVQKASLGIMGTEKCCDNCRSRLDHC
- methodSummary: WRN ATPase assay (ADP-Glo)
- Format: biochemical
- measurementContext: WRN enzymatic activity assay
resultType: IC50

q: Look up IC50 for this compound: `CCc1c(N2CCN(C(=O)CNC(=O)c3ccco3)CC2)c(=O)n2nc(C3=CCOCC3)nc2n1CC(=O)Nc1ccc(C(F)(F)F)cc1Cl`
a: < 100 nM

q: Fill in the blank: the reported IC50 of `CCc1c(N2CCN(C(=O)CNC(=O)c3cccc(O)c3F)CC2)c(=O)n2nc(N3CCOCC3)nc2n1CC(=O)Nc1ccc(C(F)(F)F)cc1F` is ____.
a: < 100 nM

q: Tell me the measured IC50 of `CCc1c(N2CCN(C(=O)NS(=O)(=O)c3cnn(C)c3)CC2)c(=O)n2nc(C3=CCOCC3)nc2n1CC(=O)Nc1ccc(C(F)(F)F)cc1Cl` , please.
a: < 100 nM

q: Quick one: IC50 for `CCc1c(N2CCN(C(=O)C(=O)Nc3nc(C)co3)CC2)c(=O)n2nc(C3=CCOCC3)nc2n1CC(=O)Nc1ccc(C(F)(F)F)cc1F` ?
a: < 100 nM

q: Could you share which IC50 value was measured for `CCOc1nc2n(CC(=O)Nc3ccc(C(F)(F)F)cc3Cl)c(CC)c(N3CCN(C(=O)CNC(=O)c4ccccc4F)CC3)c(=O)n2n1` ?
a: 100 to 1000 nM

q: # IC50 lookup, item `CCc1c(N2CCN(C(=O)CNC(=O)c3ccns3)CC2)c(=O)n2nc(C3=CCOCC3)nc2n1CC(=O)Nc1ccc(C(F)(F)F)cc1F`
a: < 100 nM

q: Record request: IC50 value, item `CCc1c(N2CCN(C(=O)c3ccnc(=O)[nH]3)CC2)c(=O)n2nc(C3=CCOCC3)nc2n1CC(=O)Nc1ccc(C(F)(F)F)cc1Cl`
a: 100 to 1000 nM

q: // lookup IC50 for `CCc1c(N2CCN(C(=O)CNC(=O)c3cccc(O)c3)CC2)c(=O)n2nc(C3=CCOCC3)nc2n1CC(=O)Nc1ccc(C(F)(F)F)cc1Cl`
a: < 100 nM

q: Given the compound `CCc1c(N2CCN(C(=O)c3cccc(C)c3O)CC2)c(=O)n2nc(C3=CCOCC3)nc2n1CC(=O)Nc1ccc(C(F)(F)F)cc1Cl` , what is its reported IC50?
a: 100 to 1000 nM

q: Record request: IC50 value, item `CCc1c(N2CCN(C(=O)CNC(=O)c3ccccc3F)CC2)c(=O)n2nc(C3=CCOCC3)nc2n1CC(=O)Nc1cnc(C(F)(F)F)s1`
a: < 100 nM

q: Report IC50 for CCc1c(N2CCN(C(=O)CNC(=O)CC3CCCO3)CC2)c(=O)n2nc(C3=CCOCC3)nc2n1CC(=O)Nc1ccc(C(F)(F)F)cc1Cl (stereo not drawn) please.
a: < 100 nM

q: Reported IC50 for `CCc1c(N2CCN(C(=O)C(=O)Nc3nc(C)cs3)CC2)c(=O)n2nc(C3=CCOCC3)nc2n1CC(=O)Nc1ccc(C(F)(F)F)cc1F` : what is it?
a: < 100 nM
